Assay: S. cerevisiae RM11-1a growth modifiers, primary screen, strain RM11-1a, OD600, basal, 24 h (AID 1177);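 further: cultures grown under basal conditions with no added stressor; test concentration not given here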
Conditions: OD600, 24 h, higher = more signal, called active from +8 up or from −8 down
Output T for z-score not less than -0.1; output F otherwise.

Look over these answered cases.
INSERT INTO assay_data (compound, grouplabel) VALUES
  ('Cc1ccc(S[C@]2(C(=O)NCCCN(C)C)CC(=O)N(C3CCCCC3)[C@@H]2c2ccc(CO)cc2)cc1', 'T'),
  ('C=CCOC(=O)[C@H]1[C@@H]2C(=O)O[C@@H](c3ccccc3)[C@@H](c3ccccc3)N2[C@@H](c2ccc(OCCOC(=O)[C@@H]3C[C@@H]4C(=O)N[C@@H](CCCCN(C)C)C(=O)N4[C@@H]3c3ccc(O)cc3)cc2)[C@]12C(=O)Nc1ccccc12', 'T'),
  ('CC(C)C[C@@H]1NC(=O)[C@@H]2C[C@H](C(=O)NCCCCN(C)C)[C@H](c3cccc(OCCO)c3)N2C1=O', 'F');

[ask] z-score >= -0.1 for O=C1NC(=O)C2C1C=CC(C(O)c1c(F)cccc1Cl)N2Nc1ccc(Cl)cc1Cl (centres undefined) ?
[reply] F

[ask] Check this compound for z-score at or above -0.1: COc1ccc(-c2nc(-c3ccccc3)c3c(c2C)CO[Si]3(C(C)C)C(C)C)cn1
[reply] F

[ask] Can COC(=O)c1nc2oc1CC[C@@H](CO)NC(=O)N(C)Cc1cnnn1C[C@H](Cc1ccccc1)NC2=O be said to have z-score at or above -0.1?
[reply] T

[ask] z-score >= -0.1 for O=C1OCCC/C=C\[C@H]2OC34C=CCN(CCN5CCOCC5)C(=O)[C@H]3N(CCCCCCO)C(=O)[C@@H]4C12 (some centres undefined) ?
[reply] F

[ask] Quick check, z-score >= -0.1? COC(=O)[C@H](Cc1ccccc1)N1CC(/C=C/C2CC2)=C[C@H]1[C@H](O)Cc1ccccc1
[reply] F

[ask] Hi team, for COCCOC(=O)N1C(=O)[C@@]2(c3cc(C#CC4=CCCCC4)ccc31)[C@H](c1ccccc1OCCO)N1[C@H](c3ccccc3)[C@H](c3ccccc3)OC(=O)[C@H]1[C@@H]2C(=O)Nc1nc2ccccc2s1 , is the recorded z-score at or above -0.1?
[reply] T

[ask] Determine whether this compound has z-score no lower than -0.1: [N-]=[N+]=NCc1ccccc1C[C@@]1(C(=O)NCc2ccccc2)N=C(c2ccc(OCCCO)cc2)O[C@@H]1c1ccccc1N=[N+]=[N-]
[reply] T

[ask] Kindly determine if z-score recorded for CN1C(=O)C2C=CC(C(O)c3cccc4ccccc34)N(N3CCCCC3)C2C1=O (centres undefined) is above or exactly -0.1.
[reply] F

[ask] Given the entry CC1=C([C@H](O)CCc2ccccc2)[C@H](CO)[C@@H]2C(=O)N(C)C(=O)[C@@H]2C1 , answer whether its z-score meets or surpasses -0.1.
[reply] T

[ask] Entry COC(=O)[C@@]1(Cc2ccccc2N=[N+]=[N-])N=C(c2ccc(OCCCO)cc2)O[C@H]1c1ccccc1N=[N+]=[N-] : is its z-score no less than -0.1?
[reply] T

[ask] Could you verify whether the entry O=C(NCCCCCNC(=O)/C(Cc1ccccc1)=N/O)OCc1ccccc1 shows z-score of no less than -0.1?
[reply] F

[ask] Would you say CC(C)N1C(=O)c2ccccc2[C@@H](C(=O)NC2CC2)[C@@H]1c1ccc(CO)cc1 shows z-score at minimum -0.1?
[reply] F

[ask] Given the entry CCOc1cc(C(O)C2C=CC3C(=O)N(c4ccccc4)C(=O)C3N2Nc2ccc(C#N)cc2)ccc1O (centres undefined) , answer whether its z-score meets or surpasses -0.1.
[reply] T

---

Test system: Noggin (protein binding on small-molecule microarray)
Test: Noggin binders on small-molecule microarray, primary screen, biochemical, 635/667 nm fluorescence (AID 1095);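 further: score merges 667 nm feature fluorescence with signal to noise over triplicate slides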
Conditions: 635 nm fluorescence, higher = more signal
measureName: composite z-score
Answer with a bare number; do not write a unit.

INSERT INTO results (compound, number) VALUES
  ('COCCOC(=O)N1C(=O)[C@@]2(c3cc(C#CC4=CCCCC4)ccc31)[C@H](c1ccccc1OCCO)N1[C@H](c3ccccc3)[C@H](c3ccccc3)OC(=O)[C@H]1[C@@H]2C(=O)N1CCCCCCC1', 0.766),
  ('CC1CC/C=C\[C@H]2OC34C=CCN(c5ccc(Cl)cc5)C(=O)[C@H]3N(CCCCCO)C(=O)[C@]4(C)C2C(=O)O1 (stereo partly specified)', -1.33),
  ('NC(=O)N1C(=O)C2C(C1=O)C1C=C(CCCO)C2C(c2cccs2)N1Cc1cccc(OC(F)(F)F)c1 (stereo unspecified)', 0.329),
  ('COCCOC(=O)N1C(=O)[C@@]2(c3cc(C#Cc4ccc(OC)cc4)ccc31)[C@H](C(=O)Nc1nc3ccccc3s1)[C@H]1C(=O)O[C@H](c3ccccc3)[C@H](c3ccccc3)N1[C@@H]2c1ccc(OCCO)cc1', 1.54),
  ('COc1ccc(NC(=O)O[C@H]2[C@H](OC(=O)Nc3ccccc3)[C@@H](OC(=O)Nc3ccccc3)[C@@H](OC)O[C@@H]2CO)cc1', 1.62);

Now let's try a different one.
[ask] Hello, please tell me recorded composite z-score for this one: COC(=O)c1c2oc(c1C(=O)OC)C(=O)N(C)Cc1cn(nn1)C[C@H](Cc1ccccc1)NC(=O)N[C@H](CO)CC2
[reply] -0.244

---

Reported composite z-score values follow for various molecules
System: Human papillomavirus type 1a E7 protein (residues 1-88)
Test: HPV1a E7 small-molecule binders, primary screen, biochemical, small-molecule microarray, residues 1-88, 635 nm (AID 1129)
Settings: small-molecule microarray binding, fluorescence 635 nm; higher = more signal
Hey, just send me the number, nothing else.

Consider the following illustrative entries.
INSERT INTO results (smilesstring, number) VALUES
  ('CC(=O)NCCCC[C@@H]1NC(=O)[C@@H]2C[C@H](C(=O)NCCCC[N+](C)(C)C)[C@H](c3ccc(O)cc3)N2C1=O', -0.882),
  ('C[N+](C)(C)CCCC[C@@H]1NC(=O)[C@H]2C[C@@H](C(=O)NCCCCCCN)[C@@H](c3ccc(O)cc3)N2C1=O', 1.13),
  ('COc1ccc([Si](C)(C)[C@@H]2[C@@H](CC(=O)N3Cc4ccccc4C[C@H]3CO)O[C@]3(C(=O)N(Cc4cccc(N5C(=O)c6cccc7cccc5c67)c4)c4ccccc43)[C@H]2C)cc1', 0.956);

--- query ---
[ask] Respond only with composite z-score recorded for CC(C)C[C@@H]1NC(=O)[C@@H]2C[C@H](C(=O)NCCCCN(C)C)[C@H](c3cccc(OCCO)c3)N2C1=O
[reply] -0.46

---

Target: Focal adhesion kinase 1 (Homo sapiens) (UniProt Q05397)
Sequence (Q05397 whole entry, looked up): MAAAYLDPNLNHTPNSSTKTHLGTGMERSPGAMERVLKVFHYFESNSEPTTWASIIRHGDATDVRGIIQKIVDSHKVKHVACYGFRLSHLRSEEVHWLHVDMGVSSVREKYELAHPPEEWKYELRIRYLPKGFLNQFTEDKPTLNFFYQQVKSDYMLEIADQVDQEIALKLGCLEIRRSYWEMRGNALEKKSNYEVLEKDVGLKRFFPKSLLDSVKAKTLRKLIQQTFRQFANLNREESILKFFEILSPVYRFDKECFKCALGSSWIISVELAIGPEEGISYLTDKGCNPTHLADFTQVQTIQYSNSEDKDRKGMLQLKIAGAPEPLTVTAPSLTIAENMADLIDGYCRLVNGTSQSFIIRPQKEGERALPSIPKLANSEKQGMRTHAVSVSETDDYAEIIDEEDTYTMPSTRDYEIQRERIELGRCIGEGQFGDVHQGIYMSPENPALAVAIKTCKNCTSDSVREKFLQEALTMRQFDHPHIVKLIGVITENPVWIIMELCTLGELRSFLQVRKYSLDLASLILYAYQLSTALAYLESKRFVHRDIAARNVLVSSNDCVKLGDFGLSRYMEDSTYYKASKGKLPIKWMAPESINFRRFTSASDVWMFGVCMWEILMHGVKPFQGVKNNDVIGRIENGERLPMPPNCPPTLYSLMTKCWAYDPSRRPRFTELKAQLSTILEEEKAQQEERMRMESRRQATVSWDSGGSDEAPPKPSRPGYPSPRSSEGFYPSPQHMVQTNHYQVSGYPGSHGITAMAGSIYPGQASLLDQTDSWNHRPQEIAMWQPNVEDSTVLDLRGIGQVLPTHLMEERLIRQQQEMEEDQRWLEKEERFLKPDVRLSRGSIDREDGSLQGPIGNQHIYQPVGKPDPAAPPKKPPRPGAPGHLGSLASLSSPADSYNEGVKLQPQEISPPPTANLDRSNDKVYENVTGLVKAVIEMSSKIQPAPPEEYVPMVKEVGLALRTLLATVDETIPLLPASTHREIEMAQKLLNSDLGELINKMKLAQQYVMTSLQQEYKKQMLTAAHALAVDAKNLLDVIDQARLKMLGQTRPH
Experiment: small-molecule microarray binders of FAK, primary screen, biochemical, 635/667 nm fluorescence, BSA, DTT (AID 1130);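 further: composite of spot emission at 667 nm and signal to noise over triplicate slides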
Settings: PTK2 binding, 635 nm fluorescence, higher = more signal
Respond with Met for composite z-score values of 0.2 and above, Not met for values below.

INSERT INTO results (compound, grouplabel) VALUES
  ('CCOC(=O)C1=CC[C@@H](c2ccccc2C(F)(F)F)N(S(=O)(=O)c2ccc(C)cc2)[C@H]1c1ccc(C#N)cc1', 'Not met'),
  ('COC(=O)c1ccc([C@H](NC(=O)c2ccco2)[C@]2(C)C[C@H]2C2CCCCC2)cc1', 'Not met'),
  ('CC1CC/C=C\[C@H]2OC34C=CCN(C(C)C)C(=O)[C@H]3N(CCCCCCO)C(=O)[C@@H]4C2C(=O)O1 (some centres undefined)', 'Not met'),
  ('O=C1N(Cc2ccccc2)Cc2ccccc2[C@@H]2OC(c3ccc(OCCCO)cc3)=N[C@]12CCS(=O)(=O)c1ccccc1', 'Met'),
  ('CN(C)C(=O)[C@@]1(Cc2ccccc2CN=[N+]=[N-])N=C(c2ccc(OCCCO)cc2)O[C@H]1c1ccccc1CN=[N+]=[N-]', 'Met'),
  ('O=C1O[C@H](c2ccccc2)[C@H](c2ccccc2)N2[C@H]1[C@@H](C(=O)NC[C@H](O)c1ccccc1)[C@]1(C(=O)Nc3ccc(C#CCCO)cc31)[C@H]2c1ccc(OCCO)cc1', 'Met'),
  ('C=C[C@@H](OC)[C@H](OC(=O)Nc1ccc(SC)cc1)c1ccc(O)c(F)c1', 'Met'),
  ('COCCCNC(=O)[C@@]1(Cc2ccccc2N=[N+]=[N-])N=C(c2ccc(OCCCO)cc2)O[C@H]1c1ccccc1', 'Met');

[ask] Hello, I need to know if COC(=O)[C@@]1(Cc2ccccc2)[C@@H]2C(=CC(=O)[C@H]2CC(=O)C(=O)N(C)C)CN1C(=O)c1ccccc1 has measured composite z-score not below 0.2. Thanks!
[reply] Met

[ask] Could you verify whether the entry N#Cc1ccc(NN2C(C(O)c3ccc(F)cc3)C=CC3C(=O)N(c4ccccc4)C(=O)C32)cc1 (centres undefined) shows composite z-score of no less than 0.2?
[reply] Not met
